# Lookup of reported Y2R EC50 (nM), inhibition of forskolin-induced cAMP (hY2 assay) keyed by entry
# assayed-system: T1, human NPY2R Gi-protein coupled receptor (human, UniProt P49146 1-381)
# T1 sequence (looked up): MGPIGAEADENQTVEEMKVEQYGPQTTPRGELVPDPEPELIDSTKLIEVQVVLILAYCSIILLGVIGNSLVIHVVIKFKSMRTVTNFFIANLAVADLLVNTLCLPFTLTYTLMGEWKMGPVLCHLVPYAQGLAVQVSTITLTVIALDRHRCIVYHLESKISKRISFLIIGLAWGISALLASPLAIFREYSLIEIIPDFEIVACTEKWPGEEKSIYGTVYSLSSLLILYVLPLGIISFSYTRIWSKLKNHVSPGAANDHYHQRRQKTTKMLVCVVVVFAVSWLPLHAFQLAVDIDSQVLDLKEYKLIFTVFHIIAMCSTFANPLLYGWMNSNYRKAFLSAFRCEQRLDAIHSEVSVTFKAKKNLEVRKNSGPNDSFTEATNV
# assay-protocol: cell-based or functional assay
Numbered stars: 1 amine (or outer) side, 2 acyl side, 3 side chain; on linkers, the order of the positions; unused ones are H or OH. Bridge positions count the residues as written; N and C are the ends. Square brackets hold non-standard residues; d marks the D form. Side chains are listed from the residue outwards. * marks the point of attachment. m‑COPhCH2 = meta-toluoyl group on the Ile3 alpha-amine, its methyl linked by thioether to hCys31, O=C(c1cccc(C[*:3])c1)[*:2]; C18 diacid = O=C(O)CCCCCCCCCCCCCCCCC(=O)*; γGlu = O=C(O)[C@H](CCC(=O)[*:2])N[*:1]; Palmitoyl = CCCCCCCCCCCCCCCC(=O)*; hCys = N[C@@H](CCS)C(=O)O; AEEA = NCCOCCOCC(=O)O
Please give a number only; it is taken to be in nM.

GISPEAPGEK([AEEA-AEEA-γGlu-C18 diacid])ASPEELNRYYASLRHYLNEVTRQRY-NH2 (lactam N-29; also: psi-(R35,Y36) reduced amide bond) [Cyclic PYY Analog SEQ ID NO:72] ... 1.75

Given the binder GISPEAPGEKASPEELNRYYASLRHYLNEVTRQRY-NH2 (lactam N-29; also: psi-(R35,Y36) reduced amide bond) [Cyclic PYY Analog SEQ ID NO:70] , what is its reported Y2R EC50 (nM), inhibition of forskolin-induced cAMP (hY2 assay)?
0.02

Request: {m‑COPhCH2}-IEPEAPGEDASPEELNRYYASLRAYLNK([γGlu-Palmitoyl])[hCys]TRQRY-NH2 (bridge N-29; not fully specified (bridges)) [Cyclic PYY Analog SEQ ID NO:22]
4.4

Request: {m‑COPhCH2}-IAPEAPGEDASPEELNRYYASLRAYLNK([γGlu-Palmitoyl])[hCys]TRQRY-NH2 (bridge N-29; not fully specified (bridges)) [Cyclic PYY Analog SEQ ID NO:21]
0.49
